Provide the recorded viability at 48 h, 100 µM for the entries that follow.
test.summary: MTT assay in normal breast cell line MCF-10A
test.parameters: human
Answer in %, number only, no unit symbol.

For reference, reported viability at 48 h, 100 µM for `Cc1ncc(-c2c(O)[nH]c(=S)[nH]c2=O)[nH]1` stands at 82.1

For reference, reported viability at 48 h, 100 µM for `Cc1ncc(-c2c(O)[nH]c(=S)[nH]c2=O)n1CCO` stands at 84.5

For reference, reported viability at 48 h, 100 µM for `Cc1ncc(-c2c(O)n(C)c(=O)n(C)c2=O)n1CCO` stands at 84.9

For reference, reported viability at 48 h, 100 µM for `Cc1ncc(-c2c(O)[nH]c(=O)[nH]c2=O)n1CCOC(=O)c1ccccc1` stands at 79.5

For reference, reported viability at 48 h, 100 µM for `Cc1ncc(-c2c(O)n(C)c(=O)n(C)c2=O)[nH]1` stands at 86.8

For reference, reported viability at 48 h, 100 µM for `Cc1ncc(-c2c(O)[nH]c(=O)[nH]c2=O)n1CCO` stands at 84.5

For reference, reported viability at 48 h, 100 µM for `Cc1ncc(-c2c(O)n(C)c(=O)n(C)c2=O)n1CCOC(=O)c1ccccc1` stands at 87.9

For reference, reported viability at 48 h, 100 µM for `Cc1ncc(-c2c(O)[nH]c(=O)[nH]c2=O)[nH]1` stands at 85.7

For reference, reported viability at 48 h, 100 µM for `Cc1ncc(-c2c(O)[nH]c(=S)[nH]c2=O)n1CCOC(=O)c1ccccc1` stands at 86.8

----------
target.system: UniProt Q16790
measured.quantity: Ki

Entry Cc1ncc(-c2c(O)[nH]c(=S)[nH]c2=O)n1CCO [Compound 9] under UniProt Q16790 had Ki of 17 µM

Entry Cc1ncc(-c2c(O)[nH]c(=S)[nH]c2=O)n1CCOC(=O)c1ccccc1 [Compound 7] under UniProt Q16790 had Ki of 7.32 µM

Entry Cc1ncc(-c2c(O)n(C)c(=O)n(C)c2=O)n1CCOC(=O)c1ccccc1 [Compound 11] under UniProt Q16790 had Ki of 8.32 µM

Entry Cc1ncc(-c2c(O)[nH]c(=S)[nH]c2=O)[nH]1 [Compound 4] under UniProt Q16790 had Ki of 15 µM

Entry Cc1ncc(-c2c(O)[nH]c(=O)[nH]c2=O)[nH]1 [Compound 3] under UniProt Q16790 had Ki of 8.01 µM

Entry Cc1ncc(-c2c(O)n(C)c(=O)n(C)c2=O)n1CCO [Compound 10] under UniProt Q16790 had Ki of 13.2 µM

----------
Provide the recorded pIC50 for the entries that follow.
target.system: hCA-II (Homo sapiens, UniProt P00918)
test.summary: In vitro inhibition of human CA-II (p-nitrophenyl acetate, 96-well plate)
Assay type: biochemical
Keep in mind that pIC50 stands for -log10 of concentration in molar terms.

For reference, reported pIC50 for Cc1ncc(-c2c(O)[nH]c(=S)[nH]c2=O)n1CCO [Compound 9] stands at 4.56

For reference, reported pIC50 for Cc1ncc(-c2c(O)[nH]c(=O)[nH]c2=O)[nH]1 [Compound 3] stands at 4.51

For reference, reported pIC50 for Cc1ncc(-c2c(O)[nH]c(=S)[nH]c2=O)[nH]1 [Compound 4] stands at 4.51

For reference, reported pIC50 for Cc1ncc(-c2c(O)n(C)c(=O)n(C)c2=O)n1CCOC(=O)c1ccccc1 [Compound 11] stands at 4.82

----------
measured.quantity: melting point

For reference, reported melting point for `Cc1ncc(-c2c(O)n(C)c(=O)n(C)c2=O)n1CCO` stands at 163 to 165 °C

For reference, reported melting point for `Cc1ncc(-c2c(O)n(C)c(=O)n(C)c2=O)n1CCOC(=O)c1ccccc1` stands at 180 to 185 °C

For reference, reported melting point for `Cc1ncc(C2=C(O)CCCC2=O)n1CCO` stands at 186 to 190 °C

For reference, reported melting point for `Cc1ncc(-c2c(O)[nH]c(=S)[nH]c2=O)n1CCOC(=O)c1ccccc1` stands at 225 to 230 °C

For reference, reported melting point for `Cc1ncc(-c2c(O)[nH]c(=O)[nH]c2=O)[nH]1` stands at 215 °C (dec.)

----------
target.system: hCA-II (Homo sapiens)
test.summary: In vitro inhibition of human CA-II (p-nitrophenyl acetate, 96-well plate)
Type: biochemical
test.parameters: compared to acetazolamide

{"columns": ["molecule", "target.system", "Inhibitory activity for hCA-II in words"],
 "data": [
  ["Cc1ncc(-c2c(O)[nH]c(=S)[nH]c2=O)[nH]1 [Compound 4]", "hCA-II (Homo sapiens)", "weak activity"],
  ["Cc1ncc(-c2c(O)[nH]c(=O)[nH]c2=O)[nH]1 [Compound 3]", "hCA-II (Homo sapiens)", "weak activity"],
  ["Cc1ncc(-c2c(O)[nH]c(=S)[nH]c2=O)n1CCO [Compound 9]", "hCA-II (Homo sapiens)", "weak activity"]
]}

----------
target.system: hCA-IX (Homo sapiens)
test.summary: Enzyme kinetic (mechanistic) studies on hCA-IX
Assay type: biochemical
test.parameters: Michaelis–Menten constant in the presence of inhibitors
Assign label 1 whenever Kmapp (hCA-IX) does not fall below 0.4; assign label 0 whenever it does.

Task: Identify whether the reported Kmapp (hCA-IX) of the following molecule is 0.4 or greater: `Cc1ncc(-c2c(O)[nH]c(=O)[nH]c2=O)[nH]1`
Output: label 0

Task: Identify whether the reported Kmapp (hCA-IX) of the following molecule is 0.4 or greater: `Cc1ncc(-c2c(O)[nH]c(=S)[nH]c2=O)n1CCO`
Output: label 1

Task: Identify whether the reported Kmapp (hCA-IX) of the following molecule is 0.4 or greater: `Cc1ncc(-c2c(O)n(C)c(=O)n(C)c2=O)n1CCOC(=O)c1ccccc1`
Output: label 1

Task: Identify whether the reported Kmapp (hCA-IX) of the following molecule is 0.4 or greater: `Cc1ncc(-c2c(O)[nH]c(=S)[nH]c2=O)[nH]1`
Output: label 1

----------
target.system: hCA-IX (Homo sapiens)
test.summary: In vitro inhibition of human CA-IX (p-nitrophenyl acetate, 96-well plate)
Type: biochemical
test.parameters: purified enzyme, substrate p-nitrophenyl acetate, 25 °C; unit inferred, µM from b1; read-out: hCA-IX IC50 ± SEM
Provide the recorded IC50 for the entries that follow.
Answer in µM, number only, no unit symbol.

For reference, reported IC50 for `Cc1ncc(-c2c(O)[nH]c(=O)[nH]c2=O)[nH]1` stands at 10.9

For reference, reported IC50 for `Cc1ncc(-c2c(O)n(C)c(=O)n(C)c2=O)n1CCOC(=O)c1ccccc1` stands at 11.9

For reference, reported IC50 for `Cc1ncc(-c2c(O)[nH]c(=S)[nH]c2=O)n1CCO` stands at 19.9

For reference, reported IC50 for `Cc1ncc(-c2c(O)[nH]c(=S)[nH]c2=O)n1CCOC(=O)c1ccccc1` stands at 9.6

For reference, reported IC50 for `Cc1ncc(-c2c(O)[nH]c(=O)[nH]c2=O)n1CCO` stands at 32.2

For reference, reported IC50 for `Cc1ncc(C2=C(O)CCCC2=O)n1CCO` stands at 23

For reference, reported IC50 for `Cc1ncc(-c2c(O)n(C)c(=O)n(C)c2=O)n1CCO` stands at 14.8

For reference, reported IC50 for `Cc1ncc(-c2c(O)[nH]c(=S)[nH]c2=O)[nH]1` stands at 17.1

----------
target.system: hCA-II (Homo sapiens, UniProt P00918)
test.summary: In vitro inhibition of human CA-II (p-nitrophenyl acetate, 96-well plate)
Format: biochemical
test.parameters: purified enzyme, substrate p-nitrophenyl acetate, 25 °C; unit inferred, µM from b1; read-out: hCA-II IC50 ± SEM
measured.quantity: IC50
Numeric answer plus unit only.

For reference, reported IC50 for `Cc1ncc(C2=C(O)CCCC2=O)n1CCO` stands at 11.6 µM
